Biological target: T1, human CD137-His6 (Sino Biological #10041-H08H) (human, UniProt Q07011 24-186)
T1 construct: Bought; also called human CD137 protein; not shown: His6 tag
Assay: SPR Biacore, IgG
experimental.readout: koff (s⁻¹)
Numeric answer only, unit s⁻¹ assumed.

| binder | experimental.readout | result |
| --- | --- | --- |
| AG10132 (antibody, human IgG4 S228P, kappa, V domains shown, also called IgG of Fab 5408) VH: EVQLVESGGGLVQPGGSLRLSCAASGYSITSGYHWSWIRQAPGKGLEWVSSISGYGDTTYYADSVKGRFTISRDNSKNTLYLQLNSLRAEDTAVYYCAREGSDTVLGDWFAYWGQGTLVTVSS VL: DIQLTQSPSSLSASVGDRVTITCQASQDIRTYLAWYQQKPGKAPKLLIYDASNLETGVPSRFSGSGSGTDFTLTISSLQPEDFATYYCQQGYSIWTFGQGTKVEIKR | koff | 0.014 |
| AG10059 (antibody, human IgG4 S228P, kappa, V domains shown) VH: EVQLVESGGGLVQPGGSLRLSCAASGYSITSGHYWAWIRQAPGKGLEWVSSISGYGSTTYYADSVKGRFTISRDNSKNTLYLQLNSLRAEDTAVYYCARGGSDAVLGDWFAYWGQGTLVTVSS VL: DIQLTQSPSSLSASVGDRVTITCRASQGIGSFLAWYQQKPGKAPKLLIYDASNLETGVPSRFSGSGSGTDFTLTISSLQPEDFATYYCQQGYYLWTFGQGTKVEIKR | koff | 0.0063 |

Now, please, on to the next binder.
Query: Please give measured koff of the following entry: AG10128 (antibody, human IgG4 S228P, kappa, V domains shown, also called IgG of Fab 5342) VH: EVQLVESGGGLVQPGGSLRLSCAASGFSLSTGGVAVGWIRQAPGKGLEWLALIDWAGDKSYSTSLKSRLTISRDNSKNTLYLQLNSLRAEDTAVYYCAREGEDAVTGDWFAYWGQGTLVTVSS VL: DIQLTQSPSSLSASVGDRVTITCQASQDIRTYLAWYQQKPGKAPKLLIYDASNRATGIPSRFSGSGSGTDFTLTISSLQPEDFATYYCQQGYSIWTFGQGTKVEIKR
Reply: 0.00037
